Assay: Study G1T28-02 Part 1 plasma PK (with E/P)
Assay type: in vivo, human
Conditions: human, plasma, intravenous, ES-SCLC + E/P, 240 mg/m2, Cycle 1 Day 3 (n = 1)
Readout Name: half-life (h)

[[record]]
compound = "CN1CCN(c2ccc(Nc3ncc4cc5n(c4n3)C3(CCCCC3)CNC5=O)nc2)CC1 [trilaciclib]"
observed_value = 4.03


====

Test: Study G1T28-1-01 plasma PK, first-in-human single dose
Format: in vivo
Details: both sexes, human, plasma; healthy volunteers, single 30-min IV 24 mg/m2 (n = 3), mean; read-out: Cmax
Readout Name: Cmax (ng/mL)

[[record]]
structure_string = "CN1CCN(c2ccc(Nc3ncc4cc5n(c4n3)C3(CCCCC3)CNC5=O)nc2)CC1"
readout_name = "Cmax"
observed_value = 255


====

Assay: Study G1T28-02 Part 1 plasma PK (with E/P)
Type: in vivo, human
Conditions: human, plasma, intravenous, ES-SCLC + E/P, 240 mg/m2, Cycle 1 Day 3 (n = 1); read-out: AUCtau (AUC0-inf, footnote a)
Readout Name: AUC (ng·h/mL)

[[record]]
compound = "CN1CCN(c2ccc(Nc3ncc4cc5n(c4n3)C3(CCCCC3)CNC5=O)nc2)CC1 [trilaciclib]"
readout_name = "AUC"
unit_descriptor = "ng·h/mL"
observed_value = 2960


====

Assay: Study G1T28-1-01 plasma PK, first-in-human single dose
Type: in vivo
Conditions: both sexes, human, plasma, iv, 49 mg/m2, healthy volunteers, single 30-min IV 49 mg/m2 (n = 3), mean
Readout Name: clearance

[[record]]
structure_string = "CN1CCN(c2ccc(Nc3ncc4cc5n(c4n3)C3(CCCCC3)CNC5=O)nc2)CC1"
readout_name = "clearance"
observed_value = "2930 mL/min"


====

Test: Study G1T28-02 Part 1 plasma PK (with E/P)
Type: in vivo, human
Settings: human, plasma, intravenous, ES-SCLC + E/P, 240 mg/m2, Cycle 1 Day 3 (n = 1); read-out: Cmax
Description: G1T28-02 (NCT02499770) was a multicentre Phase Ib/IIa study in patients with newly diagnosed ES-SCLC [5]. Eligible patients were aged ≥ 18 years and had histologically or cytologically confirmed ES-SCLC, measurable disease per Response Evaluation Criteria in Solid Tumors (RECIST) version 1.1, an Eastern Cooperative Oncology Group (ECOG) performance status of 0–2, and adequate organ function. […]
Readout Name: Cmax

[[record]]
compound = "CN1CCN(c2ccc(Nc3ncc4cc5n(c4n3)C3(CCCCC3)CNC5=O)nc2)CC1 [trilaciclib]"
observed_value = "2260 ng/mL"


====

Assay: Study G1T28-03 Part 1 plasma PK (with topotecan)
Assay type: in vivo, human
Settings: human, plasma, ES-SCLC + topotecan, 200 mg/m2, Cycle 1 Day 1 (n = 10), range
Excerpt: G1T28-03 (NCT02514447) was a multicentre Phase Ib/IIa study in patients with previously treated ES-SCLC [14]. […] Part 1 was a Phase Ib, open-label, dose-finding portion. Part 2 was a Phase IIa, randomized, double-blind, placebo-controlled portion. […] In Part 1 of the study, blood samples for PK analysis were collected at prespecified time points on Cycle 1 Day 1 and Cycle 1 Day 4 for all patients.
Readout Name: Tmax

[[record]]
molecule = "CN1CCN(c2ccc(Nc3ncc4cc5n(c4n3)C3(CCCCC3)CNC5=O)nc2)CC1 [trilaciclib]"
observed_value = "25.2 to 40.2 min"


Values compiled from paper PMC8026479.
